- MEASUREMENT_NOTES: Pharmacokinetic experiment in healthy adult males
- Type: in vivo, human
- STATED_CONDITIONS: male, human, blood, oral, 15 g, 15 g twice a day for 1 week, steady state; read-out: average AUCtau of L-serine without baseline correction
- Procedure: 24 hours before the administration with AST-001 (main component: L-serine), blood was collected to measure the concentration of L-serine. 60 g of an AST-001 powder is a white homogeneous powder without having foreign substances, divided and repackaged into an HDPE bottle or a bottle made of the same material, and the composition of this drug is such that 1,000 mg of the main component L-serine is comprised per 1,000 mg dose. [table]
ATTRIBUTE_MEASURED: AUC

Consider the compound shown here: `N[C@@H](CO)C(=O)O` What is its recorded AUC? ~883 µg·h/mL

====

- MEASUREMENT_NOTES: Pharmacokinetic experiment in Beagle dog
- Assay type: in vivo
- STATED_CONDITIONS: Beagle, dog, plasma; oral 4 g; read-out: drug loss half-life (t1/2) (converted)
ATTRIBUTE_MEASURED: half-life (h)
Supply the numeric figure in h, leaving out any unit text.

Tell me the measured half-life of `N[C@@H](CO)C(=O)O` , please. 3.8

====

- MEASUREMENT_NOTES: Pharmacokinetic experiment in Beagle dog
- Type: in vivo
- STATED_CONDITIONS: Beagle, dog, plasma; oral 8 g; read-out: drug loss half-life (t1/2) (converted)
ATTRIBUTE_MEASURED: half-life (h)
Number in h, nothing else.

Dear colleague, I am looking for the recorded half-life of the following molecule: `N[C@@H](CO)C(=O)O` 4.7

====

- MEASUREMENT_NOTES: Pharmacokinetic experiment in healthy adult males
- Assay type: in vivo, human
- STATED_CONDITIONS: male, human, blood, oral; single administration 20 g; read-out: average AUClast of L-serine without baseline correction
ATTRIBUTE_MEASURED: AUC(0-t) (µg·h/mL)
Could you give me the number in µg·h/mL? Just the number is fine.

Item N[C@@H](CO)C(=O)O [AST-001, L-serine] has what recorded AUC(0-t)? 1130

Ref: patent US12478602B2
